- test protocol: gradient 5% acetonitrile 3 min, to 50% in 2 min, to 85% in 15 min, held 3 min, 100 µL/min
- details: column: Zorbax Extend-C18 2.1 x 50 mm; eluents: water / acetonitrile, 0.1% formic acid
Classification field: Condition met = RP-LC retention time at or over 700 s; Condition not met = RP-LC retention time under 700 s.

// query Quick check: does COc1ccc(-c2cc3n(n2)CCCN(C(=O)NCc2ccco2)C3)cc1 have RP-LC retention time greater than or equal to 700 s?
// result Condition met

// query Could you tell me if the measured RP-LC retention time of COc1ccc(OC)c(NC(=O)COc2cc(C(F)(F)F)c3c(C)nn(C)c3n2)c1 reaches 700 s or more?
// result Condition met

// query Is RP-LC retention time at least 700 s? Consider O=C1c2ccccc2C(=O)c2c(NCCNCCO)ccc(O)c21
// result Condition not met

// query Would you say CN(C)c1ncncc1N1CCC(C(=O)NCc2ccc3c(c2)OCO3)CC1 shows RP-LC retention time at minimum 700 s?
// result Condition not met

// query Textbook exercise: given the entry CO[C@H]1C(=O)N(C2CCN(S(=O)(=O)Cc3ccccc3)CC2)[C@H]1c1ccncc1 , state whether its RP-LC retention time is greater than or equal to 700 s.
// result Condition not met

// query In plain terms: is recorded RP-LC retention time at least 700 s for Cc1ccc(NC(=O)Cn2c(=O)n(-c3ccccc3)c3ncccc32)cc1C ?
// result Condition met

// query Assess whether reported RP-LC retention time for CCc1nc2ccccc2c(=O)n1Cc1noc(-c2ccc(C#N)cc2)n1 sits at 700 s or higher.
// result Condition met

Attribution: the METLIN SMRT retention time set (Domingo-Almenara et al. 2019)
